Cited source for all entries: patent US7071300

Molecular target: IGF-1 (human, UniProt P05019)
Sequence (P05019 49-118): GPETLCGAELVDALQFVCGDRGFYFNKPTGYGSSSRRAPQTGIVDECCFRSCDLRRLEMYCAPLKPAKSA
Test: competition, 125I-IGF-1 binding to MCF-7 cells
We begin with a simple list: items and their reported IC50.
Report as a plain number; the unit µM is understood.

Below: 2 binders and their reported IC50.
binder | numeric.value
MDCLASVEALKWCMYG [F1-2] | 15.3
RNCFESVAALRRCMYG [F1-1] | 5.12

Next binder, please.
Exercise: // IC50 lookup, key: FECLTSVEALRGCMYG [F1-3]
Solution: 45.7
